Provide the recorded IC50 for the entries that follow.
target: Human PD-L1/PD-1 (Homo sapiens, UniProt Q9NZQ7); construct: TVMV protease cleavage site (C); made in house; host or cells: HEK293T cells; assay: HTRF Human PD-L1/PD-1 binding assay (PD-1-Ig/PD-L1-His); settings: PD-L1-His 10 nM, PD-1-Ig 20 nM; class symbol; read-out: HTRF Human PD-L1/PD-1 Binding Assay IC50 Range
Sequence (Q9NZQ7 with tags, fused parts or gaps): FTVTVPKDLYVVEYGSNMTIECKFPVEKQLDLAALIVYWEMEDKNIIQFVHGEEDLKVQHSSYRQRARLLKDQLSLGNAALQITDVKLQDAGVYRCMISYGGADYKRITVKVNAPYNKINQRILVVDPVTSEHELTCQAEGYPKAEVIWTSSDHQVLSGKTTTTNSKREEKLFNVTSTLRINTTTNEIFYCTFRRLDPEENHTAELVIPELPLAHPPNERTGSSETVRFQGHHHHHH
Where a SMILES comes first, the peptide text is derived from it. Bridges are numbered along the chain shown (N, C = ends). [ ]: non-standard residue; d: D form. ξ: configuration not given here. ξTrp(7-aza) = NC(Cc1c[nH]c2ncccc12)C(=O)O; Phe(4-F) = N[C@@H](Cc1ccc(F)cc1)C(=O)O; Bta = N[C@@H](Cc1csc2ccccc12)C(=O)O; NMeIle(3ξ) = CCC(C)[C@H](NC)C(=O)O; Hyp = O=C(O)[C@@H]1C[C@@H](O)CN1; NMeF = CN[C@@H](Cc1ccccc1)C(=O)O; Cha = N[C@@H](CC1CCCCC1)C(=O)O; NMeNle = CCCC[C@H](NC)C(=O)O; Pip = O=C(O)[C@@H]1CCCCN1; hSer = N[C@@H](CCO)C(=O)O; NMeA = CN[C@@H](C)C(=O)O; Orn = NCCC[C@H](N)C(=O)O; dThz = O=C(O)[C@H]1CSCN1; ξC = NC(CS)C(=O)O; Sar = CNCC(=O)O

Field: example entries. Status: answers known.
CCCC[C@H]1C(=O)N2CCC[C@@H]2C(=O)N[C@@H](CC(=O)O)C(=O)N[C@@H](C(C)C)C(=O)N(C)[C@@H](C(C)CC)C(=O)N[C@@H](CCC(N)=O)C(=O)N2CCC[C@@H]2C(=O)N[C@@H](Cc2c[nH]c3ccccc23)C(=O)N[C@@H](Cc2ccc(O)cc2)C(=O)N[C@@H](CCCN)C(=O)N[C@H](C(=O)NCC(N)=O)CSCC(=O)N[C@@H](Cc2ccc(F)cc2)C(=O)N(C)[C@@H](Cc2ccccc2)C(=O)N1C (some centres unmarked) [Example 9262] ({CH2CO}-[Phe(4-F)][NMeF][NMeNle][dP]DV[NMeIle(3ξ)]Q[dP]WY[Orn]CG-NH2; thioether N-13) | 1000 to 10000 nM
CCCC[C@H]1C(=O)N2CSC[C@@H]2C(=O)N[C@@H](CO)C(=O)N[C@@H](C(C)C)C(=O)N(C)[C@@H](Cc2ccccc2)C(=O)N[C@@H](Cc2ccc(O)cc2)C(=O)N2CCC[C@@H]2C(=O)N[C@@H](Cc2c[nH]c3ccccc23)C(=O)N[C@@H](Cc2ccc(O)cc2)C(=O)N[C@@H](CC(C)C)C(=O)N[C@H](C(=O)NCC(N)=O)CSCC(=O)N[C@@H](Cc2ccccc2)C(=O)N(C)[C@@H](Cc2ccccc2)C(=O)N1C [Example 10074] ({CH2CO}-F[NMeF][NMeNle][dThz]SV[NMeF]Y[dP]WYLCG-NH2; thioether N-13) | 10 to 99.9 nM
CCCC[C@H]1C(=O)N(C)[C@@H](CCCC)C(=O)N[C@@H](CCCNC(=N)N)C(=O)NC(C(=O)NCC(N)=O)CSCC(=O)N[C@@H](Cc2ccc(O)cc2)C(=O)N(C)[C@@H](C)C(=O)N[C@@H](CC(N)=O)C(=O)N2CCC[C@H]2C(=O)N[C@@H](CCO)C(=O)N[C@@H](CC(C)C)C(=O)N2C[C@H](O)C[C@H]2C(=O)N[C@@H](Cc2c[nH]c3ccccc23)C(=O)N[C@@H](CO)C(=O)N[C@@H](Cc2c[nH]c3ccccc23)C(=O)N1C (some centres unmarked) [Example 9127] ({CH2CO}-Y[NMeA]NP[hSer]L[Hyp]WSW[NMeNle][NMeNle]R[ξC]G-NH2; thioether N-14) | 1 to 9.9 nM
CCCC[C@H]1C(=O)N(C)CC(=O)N[C@@H](CC(=O)O)C(=O)N[C@@H](C(C)C)C(=O)N(C)[C@@H](Cc2ccccc2)C(=O)N[C@@H](Cc2ccc(O)cc2)C(=O)N(C)CC(=O)NC(Cc2c[nH]c3ncccc23)C(=O)N[C@@H](Cc2ccc(O)cc2)C(=O)N[C@@H](CC(C)C)C(=O)N[C@H](C(=O)NCC(N)=O)CSCC(=O)N[C@@H](CC2CCCCC2)C(=O)N(C)[C@@H](Cc2ccccc2)C(=O)N1C (some centres unmarked) [Example 3240] ({CH2CO}-[Cha][NMeF][NMeNle][Sar]DV[NMeF]Y[Sar][ξTrp(7-aza)]YLCG-NH2; thioether N-13) | 100 to 990 nM

Count: 2. Required value per item: IC50.
1. CCCC[C@H]1C(=O)N[C@@H](CC(N)=O)C(=O)N2CCC[C@H]2C(=O)N[C@@H](CO)C(=O)N[C@@H](CCO)C(=O)N2CCC[C@H]2C(=O)N[C@@H](Cc2c[nH]c3ccccc23)C(=O)N[C@@H](CO)C(=O)N[C@@H](Cc2c[nH]c3ccccc23)C(=O)N(C)[C@@H](C)C(=O)N(C)[C@@H](C)C(=O)N[C@@H](CCC(=O)O)C(=O)NC(C(=O)NCC(N)=O)CSCC(=O)N[C@@H](Cc2ccc(O)cc2)C(=O)N1C (some centres unmarked) [Example 10209] ({CH2CO}-Y[NMeNle]NPS[hSer]PWSW[NMeA][NMeA]E[ξC]G-NH2; thioether N-14)
2. CCCC[C@H]1C(=O)N(C)[C@@H](CCCC)C(=O)N[C@@H](C)C(=O)N[C@H](C(=O)NCC(N)=O)CSCC(=O)N[C@@H](Cc2ccc(O)cc2)C(=O)N2CCCC[C@H]2C(=O)N[C@@H](CC(=O)O)C(=O)N2CCC[C@H]2C(=O)N[C@@H](Cc2cnc[nH]2)C(=O)N[C@@H](CCC(N)=O)C(=O)N2C[C@H](O)C[C@H]2C(=O)N[C@@H](Cc2c[nH]c3ccccc23)C(=O)N[C@@H](CO)C(=O)N[C@@H](Cc2c[nH]c3ccccc23)C(=O)N1C [Example 1261] ({CH2CO}-Y[Pip]DPHQ[Hyp]WSW[NMeNle][NMeNle]ACG-NH2; thioether N-14)

Reply text:
1: 1000 to 10000 nM; 2: 1 to 9.9 nM

Give measured IC50 for every item shown.
1. CCCC[C@H]1C(=O)N(C)[C@@H](CCCC)C(=O)N[C@@H](CCC(=O)O)C(=O)N[C@H](C(=O)NCC(N)=O)CSCC(=O)N[C@@H](Cc2ccc(O)cc2)C(=O)N2CCCC[C@H]2C(=O)N[C@@H](CC(=O)O)C(=O)N2CCC[C@H]2C(=O)N[C@@H](CO)C(=O)N[C@@H](CCC(N)=O)C(=O)N2C[C@H](O)C[C@H]2C(=O)N[C@@H](Cc2c[nH]c3ccccc23)C(=O)N[C@@H](CO)C(=O)N[C@@H](Cc2csc3ccccc23)C(=O)N1C [Example 1506] ({CH2CO}-Y[Pip]DPSQ[Hyp]WS[Bta][NMeNle][NMeNle]ECG-NH2; thioether N-14)
2. CCCC[C@H]1C(=O)N(C)[C@@H](C)C(=O)N[C@@H](CCCNC(=N)N)C(=O)NC(C(=O)NCC(N)=O)CSCC(=O)N[C@@H](Cc2ccc(O)cc2)C(=O)N(C)[C@@H](C)C(=O)N[C@@H](CC(N)=O)C(=O)N2CCC[C@H]2C(=O)N[C@@H](CO)C(=O)N[C@H](CC(C)C)C(=O)N2C[C@H](O)C[C@H]2C(=O)N[C@@H](Cc2c[nH]c3ccccc23)C(=O)N[C@@H](CO)C(=O)N[C@@H](Cc2csc3ccccc23)C(=O)N1C (stereo partly drawn) [Example 9116] ({CH2CO}-Y[NMeA]NPS[dL][Hyp]WS[Bta][NMeNle][NMeA]R[ξC]G-NH2; thioether N-14)

Reply text:
1 to 9.9 nM
10 to 99.9 nM
